Reference source: the NIST ThermoML archive (doi:10.1021/je500050p)

Readings of activity coefficient for the listed compounds
- assayNotes: activity coefficient (dimensionless); of the first substance listed, at infinite dilution; xn = mol fraction of the nth substance listed
- measurementSetup: 343.15 K; 101 kPa; Liquid; Chromatography; x1 = 0
Quick one: just the number, no unit, thanks!

Use these answered entries as a reference point.
CCO [ethanol] + CC1(C)[C@@H]2CC[C@@]1(CS(=O)(=O)[O-])C(=O)C2.CCCCCCCCCCCCCC[N+](CCCCCC)(CCCCCC)CCCCCC | 0.26
CC1CCCC1 [methylcyclopentane] + CC1(C)[C@@H]2CC[C@@]1(CS(=O)(=O)[O-])C(=O)C2.CCCCCCCCCCCCCC[N+](CCCCCC)(CCCCCC)CCCCCC | 1.33

Reported activity coefficient ( CC(C)OC(C)C [diisopropyl ether] + CC1(C)[C@@H]2CC[C@@]1(CS(=O)(=O)[O-])C(=O)C2.CCCCCCCCCCCCCC[N+](CCCCCC)(CCCCCC)CCCCCC ) = 1.77

Record Cc1ccccc1 [toluene] + CC1(C)[C@@H]2CC[C@@]1(CS(=O)(=O)[O-])C(=O)C2.CCCCCCCCCCCCCC[N+](CCCCCC)(CCCCCC)CCCCCC . Reported activity coefficient: 0.88

For record CO [methanol] + CC1(C)[C@@H]2CC[C@@]1(CS(=O)(=O)[O-])C(=O)C2.CCCCCCCCCCCCCC[N+](CCCCCC)(CCCCCC)CCCCCC the listed activity coefficient is 0.2

For c1ccsc1 [thiophene] + CC1(C)[C@@H]2CC[C@@]1(CS(=O)(=O)[O-])C(=O)C2.CCCCCCCCCCCCCC[N+](CCCCCC)(CCCCCC)CCCCCC the compound record lists activity coefficient as 0.56

* * *

- assayNotes: activity coefficient (dimensionless); of the first substance listed, at infinite dilution; xn = mol fraction of the nth substance listed
- measurementSetup: 373.15 K; 101 kPa; Liquid; Chromatography; x1 = 0
propertyMeasured: activity coefficient
Provide a numeric answer; units are not to be included.

CCCCCCCCCC [decane] + CCCCCCCCCCCCCC[N+](CCCCCC)(CCCCCC)CCCCCC.C[C@H](O)C(=O)[O-] | 1.59
CCC(=O)CC [pentan-3-one] + CCCCCCCCCCCCCC[N+](CCCCCC)(CCCCCC)CCCCCC.C[C@H](O)C(=O)[O-] | 0.57
CCCCCC [hexane] + CCCCCCCCCCCCCC[N+](CCCCCC)(CCCCCC)CCCCCC.C[C@H](O)C(=O)[O-] | 1.06
c1ccccc1 [benzene] + CCCCCCCCCCCCCC[N+](CCCCCC)(CCCCCC)CCCCCC.C[C@H](O)C(=O)[O-] | 0.39
CCC[N+](=O)[O-] [1-nitropropane] + CCCCCCCCCCCCCC[N+](CCCCCC)(CCCCCC)CCCCCC.C[C@H](O)C(=O)[O-] | 0.36
c1ccsc1 [thiophene] + CCCCCCCCCCCCCC[N+](CCCCCC)(CCCCCC)CCCCCC.C[C@H](O)C(=O)[O-] | 0.3

activity coefficient reading for CC#N [acetonitrile] + CCCCCCCCCCCCCC[N+](CCCCCC)(CCCCCC)CCCCCC.C[C@H](O)C(=O)[O-] : 0.43

The reported value for ClC(Cl)(Cl)Cl [tetrachloromethane] + CCCCCCCCCCCCCC[N+](CCCCCC)(CCCCCC)CCCCCC.C[C@H](O)C(=O)[O-] in terms of activity coefficient is 0.29

Entry under test: ClC(Cl)Cl [trichloromethane] + CCCCCCCCCCCCCC[N+](CCCCCC)(CCCCCC)CCCCCC.C[C@H](O)C(=O)[O-] . Its activity coefficient was 0.03

Input CC1CCCCC1 [methylcyclohexane] + CCCCCCCCCCCCCC[N+](CCCCCC)(CCCCCC)CCCCCC.C[C@H](O)C(=O)[O-] . Output activity coefficient: 0.81

activity coefficient recorded for this compound, CO [methanol] + CCCCCCCCCCCCCC[N+](CCCCCC)(CCCCCC)CCCCCC.C[C@H](O)C(=O)[O-] , is 0.03

activity coefficient for CCCCCCCCCCC [undecane] + CCCCCCCCCCCCCC[N+](CCCCCC)(CCCCCC)CCCCCC.C[C@H](O)C(=O)[O-] is 1.75

// Cc1cccc(C)c1 [1,3-dimethylbenzene] + CCCCCCCCCCCCCC[N+](CCCCCC)(CCCCCC)CCCCCC.C[C@H](O)C(=O)[O-] : activity coefficient value = 0.6

Entry under test: CCCCCCCC [octane] + CCCCCCCCCCCCCC[N+](CCCCCC)(CCCCCC)CCCCCC.C[C@H](O)C(=O)[O-] . Its activity coefficient was 1.29

* * *

- assayNotes: activity coefficient (dimensionless); of the first substance listed, at infinite dilution; xn = mol fraction of the nth substance listed
- measurementSetup: 333.15 K; 101 kPa; Liquid; Chromatography; x1 = 0
Label Met for high-side activity coefficient (at or above 0.8) and Not met for low-side activity coefficient (below it).

Req: Would you say Cc1ccccc1C [1,2-dimethylbenzene] + CC1(C)[C@@H]2CC[C@@]1(CS(=O)(=O)[O-])C(=O)C2.CCCCCCCCCCCCCC[N+](CCCCCC)(CCCCCC)CCCCCC shows activity coefficient at minimum 0.8?
Resp: Not met

Req: Determine whether measured activity coefficient meets or exceeds 0.8 for CC#N [acetonitrile] + CC1(C)[C@@H]2CC[C@@]1(CS(=O)(=O)[O-])C(=O)C2.CCCCCCCCCCCCCC[N+](CCCCCC)(CCCCCC)CCCCCC
Resp: Not met

Req: Hello, I need to know if CCCCCC [hexane] + CC1(C)[C@@H]2CC[C@@]1(CS(=O)(=O)[O-])C(=O)C2.CCCCCCCCCCCCCC[N+](CCCCCC)(CCCCCC)CCCCCC has measured activity coefficient not below 0.8. Thanks!
Resp: Met

Req: Does CC(C)OC(C)C [diisopropyl ether] + CC1(C)[C@@H]2CC[C@@]1(CS(=O)(=O)[O-])C(=O)C2.CCCCCCCCCCCCCC[N+](CCCCCC)(CCCCCC)CCCCCC have a reported activity coefficient of at least 0.8?
Resp: Met

* * *

Recorded measurements of activity coefficient, one per entry
- assayNotes: activity coefficient (dimensionless); of the first substance listed, at infinite dilution; xn = mol fraction of the nth substance listed
- measurementSetup: 323.15 K; 101 kPa; Liquid; Chromatography; x1 = 0
Quick one: just the number, no unit, thanks!

Consider the reported activity coefficient for these compounds:
CCCCO [butan-1-ol] + CC1(C)[C@@H]2CC[C@@]1(CS(=O)(=O)[O-])C(=O)C2.CCCCCCCCCCCCCC[N+](CCCCCC)(CCCCCC)CCCCCC | 0.09
Cc1ccc(C)cc1 [1,4-dimethylbenzene] + CC1(C)[C@@H]2CC[C@@]1(CS(=O)(=O)[O-])C(=O)C2.CCCCCCCCCCCCCC[N+](CCCCCC)(CCCCCC)CCCCCC | 0.51

In plain terms, CCCCCCCC [octane] + CCCCCCCCCCCCCC[N+](CCCCCC)(CCCCCC)CCCCCC.C[C@H](O)C(=O)[O-] has a documented activity coefficient of 1.37

* * *

- assayNotes: activity coefficient (dimensionless); of the first substance listed, at infinite dilution; xn = mol fraction of the nth substance listed
- measurementSetup: 333.15 K; 101 kPa; Liquid; Chromatography; x1 = 0
One threshold, 1, splits the recorded activity coefficient values: lower ones are fulfilled, equal or higher ones are not fulfilled.

Cc1cccc(C)c1 [1,3-dimethylbenzene] + CC1(C)[C@@H]2CC[C@@]1(CS(=O)(=O)[O-])C(=O)C2.CCCCCCCCCCCCCC[N+](CCCCCC)(CCCCCC)CCCCCC | fulfilled
CCCCO [butan-1-ol] + CC1(C)[C@@H]2CC[C@@]1(CS(=O)(=O)[O-])C(=O)C2.CCCCCCCCCCCCCC[N+](CCCCCC)(CCCCCC)CCCCCC | fulfilled

Req: Record CCCCCCCCCCCC [dodecane] + CC1(C)[C@@H]2CC[C@@]1(CS(=O)(=O)[O-])C(=O)C2.CCCCCCCCCCCCCC[N+](CCCCCC)(CCCCCC)CCCCCC : is its activity coefficient strictly below 1?
Resp: not fulfilled

Req: A record lists CCCCCCCC [octane] + CC1(C)[C@@H]2CC[C@@]1(CS(=O)(=O)[O-])C(=O)C2.CCCCCCCCCCCCCC[N+](CCCCCC)(CCCCCC)CCCCCC . Is its activity coefficient below 1?
Resp: not fulfilled

Req: Just wondering, is activity coefficient of CC(C)CO [2-methyl-1-propanol] + CC1(C)[C@@H]2CC[C@@]1(CS(=O)(=O)[O-])C(=O)C2.CCCCCCCCCCCCCC[N+](CCCCCC)(CCCCCC)CCCCCC below 1?
Resp: fulfilled

* * *

- assayNotes: activity coefficient (dimensionless); of the first substance listed, at infinite dilution; xn = mol fraction of the nth substance listed
- measurementSetup: 333.15 K; 101 kPa; Liquid; Chromatography; x1 = 0
propertyMeasured: activity coefficient
Provide a numeric answer; units are not to be included.

Example compounds with recorded activity coefficient:
CCc1ccccc1 [ethylbenzene] + CC1(C)[C@@H]2CC[C@@]1(CS(=O)(=O)[O-])C(=O)C2.CCCCCCCCCCCCCC[N+](CCCCCC)(CCCCCC)CCCCCC | 0.76
C#CCCCC [1-hexyne] + CC1(C)[C@@H]2CC[C@@]1(CS(=O)(=O)[O-])C(=O)C2.CCCCCCCCCCCCCC[N+](CCCCCC)(CCCCCC)CCCCCC | 0.69
c1ccccc1 [benzene] + CC1(C)[C@@H]2CC[C@@]1(CS(=O)(=O)[O-])C(=O)C2.CCCCCCCCCCCCCC[N+](CCCCCC)(CCCCCC)CCCCCC | 0.51
CCOCC [diethyl ether] + CC1(C)[C@@H]2CC[C@@]1(CS(=O)(=O)[O-])C(=O)C2.CCCCCCCCCCCCCC[N+](CCCCCC)(CCCCCC)CCCCCC | 0.96

Per the record, CC(C)O [propan-2-ol] + CC1(C)[C@@H]2CC[C@@]1(CS(=O)(=O)[O-])C(=O)C2.CCCCCCCCCCCCCC[N+](CCCCCC)(CCCCCC)CCCCCC has activity coefficient of 0.2
